# System: Staphylococcus aureus
# TEST PROTOCOL: Minimum inhibitory concentration against Staphylococcus aureus
# Type: functional
Reported MIC values follow for various compounds
Give the quantity in mg/L, number only.

1) Oc1nc2nonc2nc1-c1ccc(Cl)cc1; 16
2) Oc1nc2nonc2nc1-c1ccc(N2CCCCC2)cc1; 64
3) Oc1nc2nonc2nc1-c1ccc(Br)cc1; 16
4) Oc1nc2nonc2nc1-c1cccc(Cl)c1; 128
5) Oc1nc2nonc2nc1-c1ccc(C2CCCCC2)cc1; 4

Incoming: I'm curious: which MIC was measured for Oc1nc2nonc2nc1-c1cccc(C(F)(F)F)c1 tested on Staphylococcus aureus?
Outgoing: 32

Incoming: I'm curious: which MIC was measured for Oc1nc2nonc2nc1-c1ccc(F)cc1 tested on Staphylococcus aureus?
Outgoing: 64

Incoming: I'm curious: which MIC was measured for COc1cccc(-c2nc3nonc3nc2O)c1 tested on Staphylococcus aureus?
Outgoing: 128

Incoming: I'm curious: which MIC was measured for Oc1nc2nonc2nc1-c1cccc(Br)c1 tested on Staphylococcus aureus?
Outgoing: 32

Incoming: I'm curious: which MIC was measured for Oc1nc2nonc2nc1-c1ccsc1 tested on Staphylococcus aureus?
Outgoing: 64

Incoming: I'm curious: which MIC was measured for Oc1nc2nonc2nc1-c1ccccc1 tested on Staphylococcus aureus?
Outgoing: 128

Incoming: I'm curious: which MIC was measured for Oc1nc2nonc2nc1-c1ccc(C(F)(F)F)cc1 tested on Staphylococcus aureus?
Outgoing: 32

Incoming: I'm curious: which MIC was measured for Oc1nc2nonc2nc1-c1ccc(Oc2ccccc2)cc1 tested on Staphylococcus aureus?
Outgoing: 4

Incoming: I'm curious: which MIC was measured for Oc1nc2nonc2nc1-c1ccc[nH]1 tested on Staphylococcus aureus?
Outgoing: 128

* * *

# System: Haemophilus influenzae
# TEST PROTOCOL: Minimum inhibitory concentration against Haemophilus influenzae
# Format: functional
MEASUREMENT TYPE: log10(MIC) (log10 of the value in µg/mL)
A value of 2 here means MIC of 100 in µg/mL, since values are log10.

// known answers, use as guide
1) COc1cccc(-c2nc3nonc3nc2O)c1; 0.90
2) Oc1nc2nonc2nc1-c1ccc[nH]1; 0.60
3) Cn1cccc1-c1nc2nonc2nc1O; 0.90

Incoming: Would you kindly share the measured log10(MIC) for Oc1nc2nonc2nc1-c1ccc(F)cc1 ?
Outgoing: 0.00

Incoming: Would you kindly share the measured log10(MIC) for Oc1nc2nonc2nc1-c1ccsc1 ?
Outgoing: 0.00

* * *

# System: Staphylococcus aureus
# TEST PROTOCOL: Minimum inhibitory concentration against Staphylococcus aureus
# Format: functional
Reported MIC values follow for various compounds

1) Oc1nc2nonc2nc1-c1ccccc1Br; > 128 µg/mL
2) Cn1cccc1-c1nc2nonc2nc1O; > 128 µg/mL
3) Oc1nc2nonc2nc1-c1ccccc1F; > 128 µg/mL

Incoming: Would you kindly share the measured MIC for Oc1nc2nonc2nc1-c1ccccc1Cl ?
Outgoing: > 128 µg/mL

Incoming: Would you kindly share the measured MIC for O=[N+]([O-])c1ccc(-c2nc3nonc3nc2O)cc1 ?
Outgoing: > 128 µg/mL

Incoming: Would you kindly share the measured MIC for CN(C)c1ccc(-c2nc3nonc3nc2O)cc1 ?
Outgoing: > 128 µg/mL

Incoming: Would you kindly share the measured MIC for Oc1nc2nonc2nc1-c1ccc(N2CCOCC2)cc1 ?
Outgoing: > 128 µg/mL

Incoming: Would you kindly share the measured MIC for Oc1nc2nonc2nc1-c1cccs1 ?
Outgoing: 32 µg/mL
